Tested on: HT1376 cells
Assay: MTT cell viability assay
Assay type: cell-based
Settings: HT1376, 48 h
Description: Cell culture and viability assay. […] Cell lines were maintained in Eagle's Minimum Essential Medium at 37° C. and 5% CO2. […] TCCSUP and HT1376 cells were treated with varying concentrations of ASR488 (0.2-12.5 μM) for 24, 48, and 72 h.
ASSAY METRIC: IC50 (µM)
Answer with a number only, understood to be in µM.

Asked: Kindly state the measured IC50 obtained for CC1=C(CO)C(=O)O[C@@H]([C@@H](C)[C@H]2CC[C@H]3[C@@H]4C[C@H]5O[C@]56[C@@H](OC(=O)c5cccs5)C=CC(=O)[C@]6(C)[C@H]4CC[C@]23C)C1 with HT1376 cells.
Given back: 0.75

---

System: HT1376 cells
Experiment: MTT cell viability assay
Format: cell-based
Details: HT1376, 24 h
Description: Cell culture and viability assay. […] Cell lines were maintained in Eagle's Minimum Essential Medium at 37° C. and 5% CO2. […] TCCSUP and HT1376 cells were treated with varying concentrations of ASR488 (0.2-12.5 μM) for 24, 48, and 72 h.
ASSAY METRIC: IC50 (nM)
Answer format: numeric, nM implied, no suffix.

Asked: Request the reported IC50 associated with CC1=C(CO)C(=O)O[C@@H]([C@@H](C)[C@H]2CC[C@H]3[C@@H]4C[C@H]5O[C@]56[C@@H](OC(=O)c5cccs5)C=CC(=O)[C@]6(C)[C@H]4CC[C@]23C)C1
Given back: 1280
